In this section we review reported MBC A. baumannii SI-12 (OXA-23) values for a set of compounds.
Test system: A. baumannii SI-12 (OXA-23)
Details: MHB, 5 × 10^5 CFU/mL, 18 h, 35 °C, triplicate
Non-standard residues stand in square brackets, D forms with d. Residues, ends and D or L forms follow the SMILES beside them. *: point of attachment. Octanoyl = CCCCCCCC(=O)*; Aib = CC(C)(N)C(=O)O
Write the numeric value and follow it with the unit.

[
  {
    "compound": "CCCCCCCC(=O)NC(C)(C)C(=O)NCC(=O)N[C@@H](CC(C)C)C(=O)NC(C)(C)C(=O)NCC(=O)N[C@@H](CCCCN)C(=O)N[C@@H](CC(C)C)C(=O)NC(C)(C)C(=O)NCC(=O)N[C@H](C(=O)N[C@H](CO)CC(C)C)[C@@H](C)CC [Peptide 10]",
    "MBC A. baumannii SI-12 (OXA-23)": "32 µg/mL"
  }
]

Here's the next entry for you.
Lookup: MBC A. baumannii SI-12 (OXA-23) / A. baumannii SI-12 (OXA-23) / CCCCCCCC(=O)NC(C)(C)C(=O)N[C@@H](CCCCN)C(=O)N[C@@H](CC(C)C)C(=O)NC(C)(C)C(=O)N[C@@H](CCCCN)C(=O)N[C@@H](CCCCN)C(=O)N[C@@H](CC(C)C)C(=O)NC(C)(C)C(=O)NCC(=O)N[C@H](C(=O)N[C@@H](CC(C)C)C(N)=O)[C@@H](C)CC [Peptide 11] (Octanoyl-[Aib]KL[Aib]KKL[Aib]GIL-NH2)
32 µg/mL

---

Tested on: Escherichia coli CCUGT
Conditions: MHB, 5 × 10^5 CFU/mL, 18 h, 35 °C, triplicate
Experimental: The antibacterial activity of the peptides was initially assessed on a panel of representative Gram-positive and Gram-negative organisms of high clinical relevance and commonly responsible for bacterial infections in both animals and humans. Bacillus subtilis ATCC 6633 (Bsu) was also included as a rod-shaped model Gram-positive organism. […] Both the minimum inhibitory concentration (MIC, Table 2) and the minimum bactericidal concentration (MBC, Table S1, Supporting Material) were determined. […]
Non-standard residues stand in square brackets, D forms with d. Residues, ends and D or L forms follow the SMILES beside them. *: point of attachment. Octanoyl = CCCCCCCC(=O)*; Aib = CC(C)(N)C(=O)O
Each entry below lists one item and its recorded MIC Eco value.

[
  {
    "molecule": "CCCCCCCC(=O)NC(C)(C)C(=O)NCC(=O)N[C@@H](CC(C)C)C(=O)NC(C)(C)C(=O)NCC(=O)N[C@@H](CCCCN)C(=O)N[C@@H](CC(C)C)C(=O)NC(C)(C)C(=O)NCC(=O)N[C@H](C(=O)N[C@H](CO)CC(C)C)[C@@H](C)CC [Peptide 10]",
    "MIC Eco": "64 µg/mL"
  },
  {
    "molecule": "CCCCCCCC(=O)NC(C)(C)C(=O)NCC(=O)N[C@@H](CC(C)C)C(=O)N[C@@H](CC(C)C)C(=O)NCC(=O)NCC(=O)N[C@@H](CC(C)C)C(=O)NC(C)(C)C(=O)NCC(=O)N[C@H](C(=O)N[C@@H](CC(C)C)C(N)=O)[C@@H](C)CC [Peptide 3] (Octanoyl-[Aib]GLLGGL[Aib]GIL-NH2)",
    "MIC Eco": "> 128 µg/mL"
  }
]

# lookup: MIC Eco of CCCCCCCC(=O)NC(C)(C)C(=O)N[C@@H](CCCCN)C(=O)N[C@@H](CC(C)C)C(=O)NC(C)(C)C(=O)NCC(=O)NCC(=O)N[C@@H](CC(C)C)C(=O)NC(C)(C)C(=O)NCC(=O)N[C@H](C(=O)N[C@@H](CC(C)C)C(N)=O)[C@@H](C)CC [Peptide 2] (Octanoyl-[Aib]KL[Aib]GGL[Aib]GIL-NH2)
> 128 µg/mL

Then CCCCCCCC(=O)NC(C)(C)C(=O)NCC(=O)N[C@@H](CC(C)C)C(=O)NC(C)(C)C(=O)N[C@@H](CCCCN)C(=O)N[C@@H](CCCCN)C(=O)N[C@@H](CC(C)C)C(=O)NC(C)(C)C(=O)NCC(=O)N[C@H](C(=O)N[C@H](CO)CC(C)C)[C@@H](C)CC [Peptide 4] ?
16 µg/mL

Now give it for CCCCCCCC(=O)N[C@@H](CC(C)C)C(=O)NC(C)(C)C(=O)N[C@@H](CCCCN)C(=O)N[C@H](C(N)=O)[C@@H](C)CC [Peptide 14, 1-Oct-Leu-Aib-Lys-Ile-NH2] (Octanoyl-L[Aib]KI-NH2) too.
> 128 µg/mL

Another molecule to look at: CCCCCCCC(=O)NC(C)(C)C(=O)N[C@@H](CCCCN)C(=O)N[C@@H](CCCCN)C(=O)N[C@@H](CC(C)C)C(=O)N[C@@H](CC(C)C)C(N)=O [Peptide 13, 1-Oct-Aib-Lys-Lys-Leu-Leu-NH2] (Octanoyl-[Aib]KKLL-NH2)
> 128 µg/mL
